# Tested on: UACC-62
# run_description: NCI tumour cell line growth inhibition, 48 h
Activity calls are given as the source filed them. Cut-off read from the data, not from the text of the source: active = GI50 up to about 1.1 µM and inactive = higher.
quantity_measured: GI50

Request: Recall the recorded GI50 for CCC(CC)(CO)CNc1cc(Cl)nc(N)n1 with UACC-62 and state it.
Result: > 100 µM (inactive)

Request: Recall the recorded GI50 for C/C(=N\NC(=S)Nc1ccc([N+](=O)[O-])cc1S(=O)(=O)O)c1ccccn1 with UACC-62 and state it.
Result: 73.8 µM (inactive)

Request: Recall the recorded GI50 for Oc1[nH]c(Nc2cccc(Cl)c2)nc2ncnc1-2 with UACC-62 and state it.
Result: 63.7 µM (inactive)

Request: Recall the recorded GI50 for CN1C/C(=C\c2ccc(C(=O)O)cc2)C(=O)/C(=C/c2ccc(C(=O)O)cc2)C1 with UACC-62 and state it.
Result: > 100 µM (inactive)

Request: Recall the recorded GI50 for COc1cccc(C2c3cc4c(cc3OC(C)(O)C2C)OCO4)c1O (stereo unspecified) with UACC-62 and state it.
Result: 5.12 µM (inactive)

Request: Recall the recorded GI50 for CC(=O)OC12C3C4C1C1C2C3C41OC(C)=O (stereo unspecified) with UACC-62 and state it.
Result: > 100 µM (inactive)

====

# Test system: PC-3
# run_description: NCI tumour cell line growth inhibition, 48 h
Activity calls are given as the source filed them. Cut-off read from the data, not from the text of the source: active = GI50 up to about 1.1 µM and inactive = higher.
quantity_measured: GI50

These solved cases illustrate the format of a correct answer.
COC(=O)Cc1cccc2c(=O)c(S(=O)(=O)NC(=O)Nc3ccc(Cl)cc3)c(-c3ccccc3)oc12    16.3 µM (inactive)
COC1=CC(=O)c2c(O)ccc(O)c2C1=O    18.5 µM (inactive)
CC(C)(C)OC(=O)CN1CCN(CC(=O)N2CCN(C(=O)OCc3ccccc3)CC2)CCN(CC(=O)OC(C)(C)C)CCN(CC(=O)N2CCN(C(=O)OCc3ccccc3)CC2)CC1    2.51 µM (inactive)
CC(C)c1ccc(C(c2c(O)oc3ccccc3c2=O)c2c(O)oc3ccccc3c2=O)cc1    19 µM (inactive)
COc1cc(OC)cc(Oc2nc3c(N)cc(C(F)(F)F)cc3nc2-c2ccccc2)c1    26.2 µM (inactive)

Request: Requested read-out: GI50. Entry: CSc1nc(C)c(CCOC(C)=O)c(Cl)n1
Result: > 100 µM (inactive)

Request: Requested read-out: GI50. Entry: CC1=NN(c2nc(N)nc(CS(C)(=O)=O)n2)C(C)(C)C1
Result: > 100 µM (inactive)

Request: Requested read-out: GI50. Entry: OCCCNc1[nH]cnc2nncc1-2
Result: > 100 µM (inactive)

Request: Requested read-out: GI50. Entry: CC[C@@H](C)[C@H](NC(=O)[C@H](Cc1ccccc1)NCC(F)(F)F)C(=O)OC(C)(C)C
Result: 91.6 µM (inactive)

Request: Requested read-out: GI50. Entry: C=C1[C@@H]([C@@]2(C)C=CC(=O)C(C)(C)[C@@H]2CC(=O)OC)CC[C@@]2(C)[C@H](c3ccoc3)OC(=O)[C@H]3O[C@]132
Result: 40.7 µM (inactive)

Request: Requested read-out: GI50. Entry: O=C(O)C12CC3(C(=O)O)CC(C(=O)O)(CC(C(=O)O)(C1)C3=O)C2=O
Result: > 100 µM (inactive)

Request: Requested read-out: GI50. Entry: O=C(CC(Cl)=C(Cl)Cl)c1ccccc1
Result: > 100 µM (inactive)

Request: Requested read-out: GI50. Entry: CC1CCCCCC(=O)c2c(O)cc(O)cc2CC(=O)O1 (stereo not drawn)
Result: 66.8 µM (inactive)

Request: Requested read-out: GI50. Entry: COc1ccccc1/N=N/C(=N/NC(=O)c1ccc(C)cc1)c1ccc(N(CCC#N)CCC#N)cc1OC
Result: 26.5 µM (inactive)

Request: Requested read-out: GI50. Entry: CC(=O)O[C@H](C[C@@H](C)[C@H]1C(=O)[C@H](O)[C@@]2(C)C3CC[C@H]4C(C)(C)[C@@H](OC5OCC(O)C(O)C5O)CC[C@@]45C[C@@]35CC[C@]12C)[C@@H]1OC1(C)C (stereo partly drawn)
Result: 15.2 µM (inactive)

Request: Requested read-out: GI50. Entry: Cc1ccc2c(c1)C=CC1(O2)N(c2ccccc2)C(=S)OC1(C)C (stereo not drawn)
Result: 9.27 µM (inactive)

Request: Requested read-out: GI50. Entry: CCc1cccc(CC)c1NC(=O)C(C#N)C1=C(Cl)C(=O)c2ccccc2C1=O (stereo not drawn)
Result: 13 µM (inactive)

Request: Requested read-out: GI50. Entry: Cc1ccc(C2c3c(n(C)c(=O)n(C)c3=O)OC(N(C)C)(N(C)C)C2(F)F)cc1 (stereo not drawn)
Result: > 100 µM (inactive)

====

# Tested on: NCI-H226
# run_description: NCI tumour cell line growth inhibition, 48 h
Active and inactive are the calls of the source. Cut-off read from the data, not from the text of the source: active = GI50 up to about 1.1 µM and inactive = higher.
Outcome field: choose from yes (1) for active, no (0) for inactive

Observe how each entry below is paired with its result.
CCN(CC)CCC(=O)O[C@H]1CC[C@H](CC(C)[C@H]2CC(=O)C(C)C=C(C)[C@H](OC(=O)CCN(CC)CC)C(OC)C(=O)[C@@H](C)CC(C)/C=C/C=C/C=C(C)C(OC)CC3CC[C@H](C)[C@](O)(O3)C(=O)C(=O)N3CCCCC3C(=O)O2)CC1OC (stereo partly drawn)    yes (1)
CC1CN(c2cc3c(cc2F)c(=O)c(C(=O)O)cn3-c2ccc(F)cn2)CC(C)N1 (stereo not drawn)    no (0)
CN(C)CC1(Cc2ccccc2)CC/C(=C\c2ccccc2)C1=O (stereo not drawn)    no (0)
COC(=O)C1(C(=O)OC)N=C(C)OC1c1ccccn1 (stereo not drawn)    no (0)
COC(=O)c1ccc(/N=N/N(C)COc2ccc(Br)cc2)cc1    no (0)

Request: Could you please tell me the result logged for CC1=C/C(O)CC(=O)Cc2nc(co2)C(=O)N2CCC=C2C(=O)OC(C(C)C)C(C)/C=C\C(=O)NC/C=C\1 (stereo not drawn) in this assay?
Result: no (0)

Request: Could you please tell me the result logged for COc1cc([C@@H]2c3cc4c(cc3C[C@@H]3COC(=O)C32)OCO4)cc(OC)c1O (stereo partly drawn) in this assay?
Result: no (0)

Request: Could you please tell me the result logged for O=C(Nc1nncs1)NS(=O)(=O)n1cnc2ccccc21 in this assay?
Result: no (0)

====

# Test system: NCI-H226
# run_description: NCI tumour cell line growth inhibition, 48 h
The source made the active and inactive calls. Rule as the data show it: active = GI50 up to about 1.1 µM and inactive = higher.
Outcome field: choose from y (active), n (inactive)

Observe how each entry below is paired with its result.
CCC1=CCC23C(=O)C=CC(=O)C2(C1)C(=O)c1cccc(OC)c1C3=O (configuration not stated)    n
Fc1cccc(F)c1C1SCc2nc3ccccc3n21 (configuration not stated)    n
CC1(C)C(=O)/C=C\C(=O)C(C)(C)C(=O)/C=C\C(=O)C(C)(C)C(=O)/C=C\C(=O)C(C)(C)C(=O)/C=C\C1=O    n

Request: Could you please tell me the result logged for CCOC(=O)C1C(=O)CC(O)(c2ccccc2)C(C(=O)OCC)C1c1ccc(OC)cc1 (configuration not stated) in this assay?
Result: n

Request: Could you please tell me the result logged for O=C1Nc2ccccc2/C1=C1/Nc2ccccc2/C1=N/OCCOCCO in this assay?
Result: y

Request: Could you please tell me the result logged for CC(=O)C(CN(C)C)C(c1ccccc1)c1c(O)c2ccccc2oc1=O (configuration not stated) in this assay?
Result: n

Request: Could you please tell me the result logged for O=S(=O)(c1ccccc1)N1CCN(S(=O)(=O)c2ccccc2)c2ccccc21 in this assay?
Result: n

Request: Could you please tell me the result logged for COC1=CC(=O)c2c(O)ccc(O)c2C1=O in this assay?
Result: n

Request: Could you please tell me the result logged for CC(C)NC(=O)CCN(C(=O)O)S(=O)(=O)c1ccc(NC(=O)c2ccccc2)cc1 in this assay?
Result: n

Request: Could you please tell me the result logged for O=C(O)C(Cc1ccc2c(c1)CCC2)(Cc1ccc2c(c1)CCC2)C(=O)O in this assay?
Result: n

Request: Could you please tell me the result logged for O=C1c2ccccc2C(Br)(Br)c2ccccc21 in this assay?
Result: n

Request: Could you please tell me the result logged for CC(=O)OC(OC(C)=O)c1ccc2ccc3cccc4ccc1c2c34 in this assay?
Result: n

Request: Could you please tell me the result logged for C/C(=N/NC(N)=S)C(CN1CCOCC1)C(C1=C(O)c2ccccc2OC1)c1ccccc1 (configuration not stated) in this assay?
Result: n

Request: Could you please tell me the result logged for N=C(N)N/N=C(/c1nc2ccc([N+](=O)[O-])cc2[nH]c1=O)C(O)c1ccc([N+](=O)[O-])cc1 (configuration not stated) in this assay?
Result: n

Request: Could you please tell me the result logged for Cc1cc(-c2no[n+]([O-])c2-c2cc(C)sc2S(C)(=O)=O)c(S(C)(=O)=O)s1 in this assay?
Result: n

Request: Could you please tell me the result logged for CNc1ncnc2c1nnn2C in this assay?
Result: n

Request: Could you please tell me the result logged for O=C1/C(=C\c2ccc([N+](=O)[O-])cc2)Sc2scc(-c3ccc(O)c(O)c3)[n+]21 in this assay?
Result: n

Request: Could you please tell me the result logged for COC12C=CC(CC1)C(C)(C)C2=O (configuration not stated) in this assay?
Result: n

Request: Could you please tell me the result logged for O=C(CC(Cl)=C(Cl)Cl)c1ccccc1 in this assay?
Result: n

Request: Could you please tell me the result logged for CN(C)CC1CCC(=C2CCCC2)C1=O (configuration not stated) in this assay?
Result: n

Request: Could you please tell me the result logged for O=C(/C=C/c1ccc2c(c1)OCO2)c1ccc(O)cc1 in this assay?
Result: n

Request: Could you please tell me the result logged for CC(C)[N+]([O-])(CCCNc1c2ccccc2nc2cccc([N+](=O)[O-])c12)C(C)C in this assay?
Result: y
